- Tested on: SF-539
- method_summary: NCI 60 growth inhibition
- Assay type: cell-based, human
- particulars: Homo sapiens; SF-539, CNS Cancer, Table 2
reported_property: log10(GI50) (log10 of the value in nM)

smiles_entry	log10(GI50)
C=C1C(=O)O[C@H]2[C@H]1CC/C(Cn1cc(-c3cccc(Cl)c3)nn1)=C\CC[C@@]1(C)O[C@@H]21	2.40
C=C1C(=O)O[C@H]2[C@H]1CC/C(Cn1cc(-c3ccc(OC)cc3)nn1)=C\CC[C@@]1(C)O[C@@H]21	2.53
C=C1C(=O)O[C@H]2[C@H]1CC/C(Cn1cc(-c3ccccc3)nn1)=C\CC[C@@]1(C)O[C@@H]21	3.30
C=C1C(=O)O[C@H]2[C@H]1CC/C(Cn1cc(CCC)nn1)=C\CC[C@@]1(C)O[C@@H]21	3.95
C=C1C(=O)O[C@H]2[C@H]1CC/C(Cn1cc(-c3cc(C(F)(F)F)cc(C(F)(F)F)c3)nn1)=C\CC[C@@]1(C)O[C@@H]21	2.23
C=C1C(=O)O[C@H]2[C@H]1CC/C(Cn1cc(-c3ccc(F)cc3)nn1)=C\CC[C@@]1(C)O[C@@H]21	2.43

---

The reader will find reported GI50 values listed item by item below.
- System: MDA-MB-468
- method_summary: NCI 60 growth inhibition
- Type: cell-based, human
- particulars: Homo sapiens; MDA-MB-468, Breast Cancer, Table 2

smiles_entry	GI50 / nM
C=C1C(=O)O[C@H]2[C@H]1CC/C(Cn1cc(-c3ccc(F)cc3)nn1)=C\CC[C@@]1(C)O[C@@H]21	420
C=C1C(=O)O[C@H]2[C@H]1CC/C(Cn1cc(-c3cc(C(F)(F)F)cc(C(F)(F)F)c3)nn1)=C\CC[C@@]1(C)O[C@@H]21	420
C=C1C(=O)O[C@H]2[C@H]1CC/C(Cn1cc(-c3ccc(OC)cc3)nn1)=C\CC[C@@]1(C)O[C@@H]21	890
C=C1C(=O)O[C@H]2[C@H]1CC/C(Cn1cc(-c3cccc(Cl)c3)nn1)=C\CC[C@@]1(C)O[C@@H]21	560
C=C1C(=O)O[C@H]2[C@H]1CC/C(Cn1cc(-c3ccccc3)nn1)=C\CC[C@@]1(C)O[C@@H]21	950
C=C1C(=O)O[C@H]2[C@H]1CC/C(Cn1cc(CCC)nn1)=C\CC[C@@]1(C)O[C@@H]21	3650

---

- Test system: KM12
- method_summary: NCI 60 growth inhibition
- Format: cell-based, human
- particulars: Homo sapiens; KM12, Colon Cancer, Table 2
The molecules listed here are annotated with their GI50.

smiles_entry	GI50 [µM]
C=C1C(=O)O[C@H]2[C@H]1CC/C(Cn1cc(-c3ccccc3)nn1)=C\CC[C@@]1(C)O[C@@H]21	8.48
C=C1C(=O)O[C@H]2[C@H]1CC/C(Cn1cc(CCC)nn1)=C\CC[C@@]1(C)O[C@@H]21	17.6
C=C1C(=O)O[C@H]2[C@H]1CC/C(Cn1cc(-c3ccc(OC)cc3)nn1)=C\CC[C@@]1(C)O[C@@H]21	3.51
C=C1C(=O)O[C@H]2[C@H]1CC/C(Cn1cc(-c3cc(C(F)(F)F)cc(C(F)(F)F)c3)nn1)=C\CC[C@@]1(C)O[C@@H]21	1.04
C=C1C(=O)O[C@H]2[C@H]1CC/C(Cn1cc(-c3cccc(Cl)c3)nn1)=C\CC[C@@]1(C)O[C@@H]21	1.78
C=C1C(=O)O[C@H]2[C@H]1CC/C(Cn1cc(-c3ccc(F)cc3)nn1)=C\CC[C@@]1(C)O[C@@H]21	1.7
